- measurementNotes: NCI Yeast Anticancer Drug Screen. Data for the sgs1 mgt1 strain (AID 161);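 also: 0% = growth of cultures given vehicle only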
- measurementParameters: S. cerevisiae sgs1 mgt1 strain, at 50.0 µM, active compounds read high
About 79,000 compounds went through this panel and 15% of them were active in at least one assay; those are over-represented in the sample as a whole. Activity calls are given as the source filed them. Rule as the data show it: active = growth inhibition above about 70%; inactive = the rest.
experimentalReadout: growth inhibition

Previously resolved entries follow.
O=C(O)/C=C\C(=O)Nc1ccc(C(=O)NCC(=O)O)cc1 yielded growth inhibition of -0.85% (inactive)

Cc1cc(C)c2ccc(NC(=O)CCC(=O)O)nc2n1 yielded growth inhibition of 7.45% (inactive)

O=C(c1ccccc1)C1Nc2ccccc2CO1 (configuration not stated) yielded growth inhibition of -13.5% (inactive)

Hi! Can you tell me growth inhibition for each of these molecules?
1. COc1ccccc1NC(=O)CC(=O)N1N=C(N2c3ccccc3Sc3ccccc32)CC1c1ccccc1 (configuration not stated)
2. O=C(O)Cc1ccc2c(c1)C(=O)C(=O)N2
3. C=C(Cl)C(C)(Cl)CCC(Cl)C(C)(C)Cl (configuration not stated)

Out:
["-2.15% (inactive)", "7.05% (inactive)", "29.6% (inactive)"]

Hi! Can you tell me growth inhibition for each of these molecules?
1. CCOC(=O)/C=C/SCC(N)C(=O)OCC (configuration not stated)
2. O=C1NC2(CCCCC2)N=C2C(Cl)CCCC12Cl (configuration not stated)
3. CCN(CC)CCS(=O)(=O)CCS(=O)(=O)CCN(CC)CC
4. Cc1ccc(N2[C@H]3CCCN3c3ccc(C)cc3[C@@H]2C(F)(F)F)cc1
5. O=C(/C=C/c1ccccc1)Oc1ccccc1
6. CN(C)c1nc(=NCc2cccs2)ss1

Out:
["-12.9% (inactive)", "-0.7% (inactive)", "25.2% (inactive)", "29.5% (inactive)", "1.5% (inactive)", "77.5% (active)"]
